- ASSAY_INFO: Oral bioavailability in dog
- Format: ADME, organism-based, Canis lupus familiaris
- PROTOCOL_CONDITIONS: in vivo
MEASUREMENT_KIND: bioavailability (%)
Respond with the bare value in %.

Data request: I'd like to know its bioavailability. The compound in question is `CCNc1nc2c(c(C(N)=O)n1)CN(C(=O)CCc1ccc(OC(F)(F)F)cc1)CC2`
Data returned: 41

====

Consider the following compounds and their measured logD readings.
- ASSAY_INFO: Lipophilicity, log D of the compound by shake-flask method
- Assay type: physicochemical
- PROTOCOL_CONDITIONS: octanol/water
Give the value as a plain number.

Data request: I'd like to know its logD. The compound in question is `CCOc1nc2c(c(C(N)=O)n1)CN(C(=O)CCc1ccc(OC(F)(F)F)cc1)CC2`
Data returned: 2.9

Data request: I'd like to know its logD. The compound in question is `CCNc1nc2c(c(C(N)=O)n1)CN(C(=O)CCc1ccc(OC)cc1)CC2`
Data returned: 1.05

Data request: I'd like to know its logD. The compound in question is `CCNc1nc2c(c(C(N)=O)n1)CN(C(=O)CCc1ccc(OC(F)(F)F)cc1)CC2`
Data returned: 3

Data request: I'd like to know its logD. The compound in question is `CCc1nc2c(c(C(N)=O)n1)CN(C(=O)CCc1ccc(OC(F)(F)F)cc1)CC2`
Data returned: 2.9

Data request: I'd like to know its logD. The compound in question is `CCNc1nc2c(c(C(N)=O)n1)CN(C(=O)CCc1ccc(CC(F)(F)F)cc1)CC2`
Data returned: 2.6

====

- ASSAY_INFO: Half life in dog at 1 mg/kg, iv and 3 mg/kg, po
- Type: ADME, organism-based, Canis lupus familiaris
- PROTOCOL_CONDITIONS: in vivo
MEASUREMENT_KIND: half-life (min)
Respond with the bare value in min.

Data request: I'd like to know its half-life. The compound in question is `CCNc1nc2c(c(C(N)=O)n1)CN(C(=O)CCc1ccc(OC(F)(F)F)cc1)CC2`
Data returned: 50.4

====

- ASSAY_INFO: Permeability from apical to basolateral side of MDCK cells expressing MDR1
- Format: ADME, cell-based, Canis lupus familiaris
- PROTOCOL_CONDITIONS: dog
MEASUREMENT_KIND: Papp A→B (×10⁻⁶ cm/s)
Respond with the bare value in ×10⁻⁶ cm/s.

Data request: I'd like to know its Papp A→B. The compound in question is `CCNc1nc2c(c(C(N)=O)n1)CN(C(=O)CCc1ccc(OC(F)(F)F)cc1)CC2`
Data returned: 12.4

====

- ASSAY_INFO: Clearance in dog at 1 mg/kg, iv and 3 mg/kg, po
- Type: ADME, organism-based, Canis lupus familiaris
- PROTOCOL_CONDITIONS: in vivo
MEASUREMENT_KIND: clearance (mL/min/kg)
Respond with the bare value in mL/min/kg.

Data request: I'd like to know its clearance. The compound in question is `CCNc1nc2c(c(C(N)=O)n1)CN(C(=O)CCc1ccc(OC(F)(F)F)cc1)CC2`
Data returned: 8.05

====

- ASSAY_INFO: Lipophilicity, log D of the compound by shake-flask method
- Format: physicochemical
- PROTOCOL_CONDITIONS: octanol/water
MEASUREMENT_KIND: logD
Give the value as a plain number.

Data request: I'd like to know its logD. The compound in question is CC[C@H]1[C@@H](O)[C@@H]2[C@H](C[C@H](O)[C@]3(C)[C@@H]([C@H](C)C[C@H](C)C(=O)O)CC[C@@H]23)[C@@]2(C)CCC(O)C[C@@H]12 (single isomer, unassigned)
Data returned: 1.85

Data request: I'd like to know its logD. The compound in question is `CCNc1nc2c(c(C(N)=O)n1)CN(C(=O)CCc1ccc(C(C)(F)F)cc1)CC2`
Data returned: 2.2

Data request: I'd like to know its logD. The compound in question is `CCc1nnn(-c2ccccc2)c1C(=O)N(C)c1ccc(Cl)cc1`
Data returned: 2.9

Data request: I'd like to know its logD. The compound in question is `Cc1ccc(N(C)C(=O)c2c(-c3ccccc3Cl)noc2C)cc1Cl`
Data returned: 3.9

Data request: I'd like to know its logD. The compound in question is `CCNc1nc2c(c(C(N)=O)n1)CN(C(=O)CCc1ccc(CC)cc1)CC2`
Data returned: 2.4

Data request: I'd like to know its logD. The compound in question is `NC(=O)c1nc(C2CC2)nc2c1CN(C(=O)CCc1ccc(OC(F)(F)F)cc1)CC2`
Data returned: 3.3

Data request: I'd like to know its logD. The compound in question is `COc1ccc2cc(CNCCc3ccc(Br)cc3)c(-c3ccsc3)nc2c1`
Data returned: 5.1

Data request: I'd like to know its logD. The compound in question is `CCNc1nc2c(c(C(N)=O)n1)CN(C(=O)CCc1ccccc1)CC2`
Data returned: 1.4

Data request: I'd like to know its logD. The compound in question is `CCNc1nc2c(c(C(N)=O)n1)CN(C(=O)CCc1ccc(C(C)C)cc1)CC2`
Data returned: 3.4

Data request: I'd like to know its logD. The compound in question is `CCNc1nc2c(c(C(N)=O)n1)CN(C(=O)CCc1ccc(SC(F)(F)F)cc1)CC2`
Data returned: 3.5

Data request: I'd like to know its logD. The compound in question is `CCNc1nc2c(c(C(N)=O)n1)CN(C(=O)CCc1ccc(C(C)(F)F)nc1)CC2`
Data returned: 1.4
